Values from PubChem BioAssay AID1645848

Readings of solubility kinetic for the listed compounds
Details: buffer; pH 7.4; 6.0 h; 150.0 µM
assay readout: solubility kinetic (µg/mL)

>>> print(df.to_string())
                                    compound  reading_unit  qualifier_operator  observed_measurement
 0   CC(C)NC(=O)c1nc(-c2ccc(Cl)nc2)c2cnccn12         µg/mL                   =                  16.5
 1  Cc1cnc(-c2ccccc2C(F)F)nc1NCc1ccc(-c2cccnc2)cc1         µg/mL                   =                  1.07
 2  CCCCN1CCC[C@H]1CNC(=O)c1cc(C#N)c2ccccc2c1OC         µg/mL                   =                  22.2
 3  Cc1ccc(-n2nc3c(N4CCCC(C(=O)NCc5ccccc5C)C4)nnc(C)c3c2C)cc1 (stereo unspecified)         µg/mL                   <                     1
 4  CC(=O)Nc1ccc(CN2CCc3nc(C(C)C)nc(-c4ccc(Cl)cc4)c3CC2)cc1         µg/mL                   =                  33.1
 5  Cc1cc(F)ccc1-c1nc(NCCN=C(N)NC#N)nc2c1ccc(=O)n2-c1c(F)cccc1F         µg/mL                   =                  39.5
 6  Cc1c(C(=O)OCCOc2ccccc2)[nH]c2c1C(=O)CC(c1ccccc1)C2 (stereo unspecified)         µg/mL                   <                     1
 7  Cc1ccnc(NC(=S)N2CCC(Nc3cccc(C(F)(F)F)c3)CC2)c1         µg/mL                   =                   6.4
 8  CO[C@@H]1[C@H](N(C)C(=O)c2ccccc2)C[C@H]2O[C@]1(C)n1c3ccccc3c3c4c(c5c6ccccc6n2c5c31)C(=O)NC4         µg/mL                   <                     1
 9  CNS(=O)(=O)c1cc(-c2nn3c(C)nnc3c3ccccc23)ccc1C         µg/mL                   =                  4.84
10      Cc1ccc(Nc2nc(NCCO)c3ccccc3n2)cc1C.Cl         µg/mL                   =                  28.1
11  CCn1c(C)c(C(C)=O)c(C)c1C(=O)Nc1cccc([S+](=O)([O-])N(C)C)c1         µg/mL                   =                  43.4
12           O=c1c2c([nH]c3ccc(Br)cc13)CCCC2         µg/mL                   =                  4.86
13  Nc1ncccc1-c1nc2ccc(-c3ccccc3)nc2n1-c1ccc(C2(N)CCC2)cc1         µg/mL                   >                    64
14  Cc1ccc(S(=O)(=O)Nc2cnccc2C(=O)Nc2nc(C(=O)O)cs2)cc1         µg/mL                   >                    62
15         O=C(Cc1ccc(Cl)cc1)Nc1cnccc1C(=O)O         µg/mL                   >                    43
16  COc1ccccc1C(=O)Nc1nnc(SCc2cc(=O)c3ccccc3[nH]2)s1         µg/mL                   <                     1
17   CC(C)(C)n1nc(-c2ccc(Cl)cc2)c2c(N)ncnc21         µg/mL                   <                     1
18  NC(=O)Nc1cc(-c2ccc(CN3CCOCC3)cc2)sc1C(N)=O         µg/mL                   =                  14.3
19  O=C(Cc1ccc(-c2csc(Nc3ccc(F)cc3)n2)s1)N1CCOCC1         µg/mL                   =                  2.31
20       Oc1ccc(CNc2ccccc2C(F)(F)F)c2cccnc12         µg/mL                   =                  1.23
